- Test system: HEK-293T
- Experiment Description: Incucyte cell viability with HEK293T; further: unitless GR value; below 1 slowed growth and below 0 cell loss
- Type: toxicity, cell-based
- Experimental Setup: human, 24 h, 10 µM, compound concentration 10 uM, replicate number 2
Label rule, in plain words: Growth Rate of 0.9 and up is true (1), under 0.9 is false (0).

Compound	Label Class
CC(C)S(=O)(=O)c1ccccc1Nc1nc(N[C@@H]2CCCN(CCCCCCCNC(=O)COc3cccc4c3C(=O)N(C3CCC(=O)N(C)C3=O)C4=O)C2)ncc1Cl (stereo partly drawn)	false (0)
CN(C(=O)c1ccccc1)c1ccc2c(c1)nc(NC(=O)c1ccc(Br)s1)n2CCC(N)=O	false (0)
S=c1[nH]nc(-c2cccs2)n1-c1ccccc1	false (0)
O=c1cccc2n1C[C@@H]1CNC[C@H]2C1	true (1)
CCCCCCCCCCCCCC(=O)O[C@@H]1[C@@H](C)[C@@]2(O)[C@@H](C=C(CO)C[C@]3(O)C(=O)C(C)=C[C@@H]23)[C@@H]2C(C)(C)[C@]12OC(C)=O [PHORBOL MYRISTATE ACETATE]	false (0)
CC(=O)Nc1nc2c(Oc3cc(-c4ccc(C(F)(F)F)cc4)ncn3)cccc2s1	true (1)
CCOC(=O)c1ccc(N2C(=O)C(O)=C(C(=O)c3ccc(OC)cc3)C2c2ccc(F)cc2)cc1 (stereo not drawn)	false (0)
CCNCCNC(=O)c1c(C)[nH]c(/C=C2\C(=O)Nc3ccc(F)cc32)c1C	false (0)
Nc1ncc2c(n1)-c1c([nH]c3ccc(C4CC4)cc13)CCCC2	false (0)
Cc1ccc(-c2c(C(=O)CF)n(CCCO)c3ncnc(N)c23)cc1	false (0)
O=C(Nc1cccc(Nc2nccc(Nc3cccc(C(F)(F)F)c3)n2)c1)C1CC1	false (0)
O=C1CSC(=O)N1C(CCc1ccncc1)COc1ccc(-c2cccc([N+](=O)[O-])c2)cc1 (stereo not drawn)	false (0)
O=C(Cc1ccccc1[N+](=O)[O-])Nc1ccc(-c2ccc(C(O)(C(F)(F)F)C(F)(F)F)cc2F)cc1	false (0)
CN1CCN(c2ccnc(NCCc3ccccc3)n2)CC1 [TP-040n]	false (0)
O=C1NCCSc2c1sc1ccc(O)cc21	false (0)
COc1cc(C(=O)NC2CCN(C)CC2)ccc1Nc1ncc(C(F)(F)F)c(NCc2ccc(C)cc2N(C)S(C)(=O)=O)n1.O=CO.O=CO	false (0)
C[C@H](CCC(=O)O)[C@H]1CC[C@H]2[C@@H]3[C@H](O)C[C@@H]4C[C@H](O)CC[C@]4(C)[C@H]3C[C@H](O)[C@]12C	true (1)
Cn1c2ccccc2c2c3c(c4c5ccccc5n(CCC#N)c4c21)CNC3=O	false (0)
CC[C@]1(C)C[C@@H](OC(=O)CSc2nnc(N)[nH]2)[C@@]2(C)[C@H](C)CC[C@@]3(CCC(=O)[C@H]32)[C@@H](C)[C@@H]1O	false (0)
CNc1nc(Nc2ccc(C(=O)N3CCOCC3)cc2OC)ncc1Cl	true (1)
CC(C)C[C@H](NC(=O)c1cc2ccccc2s1)C(=O)N1CCN(C(=O)[C@H](CO)NS(=O)(=O)c2ccc(Cl)cc2Cl)CC1	false (0)
O=C(O)c1ccc(S(=O)(=O)N(Cc2ccc(OC(F)(F)F)cc2)c2ncc(C(F)(F)F)cc2Cl)cc1	true (1)
Cc1ccc(CNc2ncnc3ccc(-c4ccc(CO)o4)cc23)o1	false (0)
CN(C)c1ccc(-c2cc3ncccc3c(OCCCCO)n2)cc1.O=C(O)C(F)(F)F	false (0)
CC[C@@]1(c2ccccc2)NC(=O)N(Cc2ccccc2)C1=O	false (0)
CN(C)CC#Cc1ccc2[nH]c3c(c2c1)-c1nc(N)ncc1CCC3	false (0)
Cc1cc(SCc2sc(-c3ccc(C(F)(F)F)cc3)nc2C)ccc1OCC(=O)O	false (0)
CN(C(=O)CCOCCOCCOCCOCCNc1cccc2c1C(=O)N(C1CCC(=O)NC1=O)C2=O)[C@H]1CC[C@@]2(C)[C@@H](CC[C@@H]3[C@@H]2CC[C@]2(C)[C@@H](c4ccc5ccncc5c4)CC[C@@H]32)C1 (stereo partly drawn)	false (0)

* * *

- Test system: Fibroblast
- Experiment Description: Incucyte cell viability with human fibroblast; further: unitless GR value; below 1 slowed growth and below 0 cell loss
- Format: toxicity, cell-based
- Experimental Setup: 18 h, 10 µM, compound concentration 10 uM, replicate number 2
Label rule, in plain words: Growth Rate of 0.8 and up is Satisfied, under 0.8 is Not satisfied.

>>> df
                                    compound         tgt    label_class
 0  C[C@@H](C(N)=O)[C@H](N)c1nc2cc(C(C)(C)C)ccc2[nH]1  Fibroblast  Not satisfied
 1  CC(CNS(=O)(=O)C(C)C)c1ccc(-c2ccc(C#N)cc2)cc1 (stereo not drawn)  Fibroblast  Not satisfied
 2  CN1CCN(c2ccnc(NCCc3ccccc3)n2)CC1 [TP-040n]  Fibroblast  Not satisfied
 3  CN1C(=O)Cc2ccc(-c3ccc(C[C@@H](C#N)NC(=O)[C@H]4N[C@@H]5CC[C@H]4C5)c(F)c3)cc21  Fibroblast  Not satisfied
 4  O=C(Nc1ccccc1Cl)c1cnc2ccc(C3CCNCC3)cn12.O=C(O)C(=O)O  Fibroblast  Not satisfied
 5              Oc1c(-c2cccnc2)cnn1-c1ccccn1  Fibroblast  Not satisfied
 6  CCN1CCN(Cc2ccc(C(=O)Nc3ccc(C)c(Oc4ccc5c(c4)CC(=O)N5)c3)cc2C(F)(F)F)CC1.Cl.Cl  Fibroblast  Not satisfied
 7  CC(C)(C)NC(=O)c1cncn1C1CCN(c2ccc(-c3nnc(C(F)(F)F)o3)cn2)CC1  Fibroblast  Not satisfied
 8  CC(C)C[C@H](NC(=O)[C@@H](O)[C@H](N)Cc1ccccc1)C(=O)O  Fibroblast      Satisfied
 9  Cc1nccc(COC(=O)N2C[C@@H]3[C@@H](CNC(=O)c4ccc5[nH]nnc5c4)[C@@H]3C2)n1  Fibroblast  Not satisfied
10  COc1ccccc1-n1nc(C2CC(C)(C)OC(C)(C)C2)cc1-c1ccc(Cl)cc1  Fibroblast      Satisfied
11  CC[C@@H](Nc1c(C#N)c(-c2ccc(-c3cccc(C)c3F)cc2)nc2cnccc12)C(=O)O  Fibroblast  Not satisfied
12  COc1ccc(C(F)(F)F)cc1NC(=O)Nc1ccc(Oc2cc(C)nc(N)n2)c2ccccc12  Fibroblast      Satisfied
13  COc1cc(O)c(C(CC(=O)N2C[C@H](C)C[C@H](C)C2)c2ccc3c(c2)OCO3)c(OC)c1 (stereo partly drawn)  Fibroblast      Satisfied
14  O=C(Nc1ccccc1Br)N[C@@H]1CCN(c2ccc(C(F)(F)F)cn2)C1  Fibroblast  Not satisfied
15    COc1ccc(-n2nc3c4ccccc4[nH]cc-3c2=O)cc1  Fibroblast      Satisfied

* * *

- System: Fibroblast
- Experiment Description: Incucyte cell viability with human fibroblast; further: unitless GR value; below 1 slowed growth and below 0 cell loss
- Type: toxicity, cell-based
- Experimental Setup: 6 h, 10 µM, compound concentration 10 uM, replicate number 2
Experimental Readout: Growth Rate

Compound	Tgt	Experimental Value
C=CC(=O)Nc1ccc2[nH]c(=O)n(C3CCN(Cc4ccc(-c5ccc6c(c5)NC(=O)CO6)cc4)CC3)c2c1 [RL2578]	Fibroblast	0.95
Cc1c(NC(=O)COc2ccc(Cl)cc2C(=O)c2cc(F)cc(C(F)(F)F)c2)ccc(C(=O)O)c1F [BI 2540]	Fibroblast	0.6
CCn1c(-c2nc3cc(C(=O)N4CCCC(N)C4)ccc3n2C)cc2ccccc21.Cl (configuration not stated)	Fibroblast	0.59
CN(C1CCc2c(c3ccccc3n2CC(=O)O)C1)S(=O)(=O)c1ccc(F)cc1 (configuration not stated)	Fibroblast	0.23
NC(=O)c1cc(-c2ccnc(NC3CCCCC3)c2)nc(N2CCNCC2)c1	Fibroblast	-0.77
Cc1csc(S(=O)(=O)N(CC(C)C)c2cc3c(cc2OCc2ccc(C(=O)O)cc2)CCC3)n1	Fibroblast	0.06
CC[C@H]1[C@@H](O)[C@@H]2[C@H](CC[C@]3(C)[C@@H]([C@H](C)CCC(=O)O)CC[C@@H]23)[C@@]2(C)CC[C@@H](O)C[C@@H]12 [OBETICHOLIC ACID]	Fibroblast	0.74
Cn1cc(-c2ccc3occ(-c4cccc(-c5ccncc5)c4)c3n2)cn1	Fibroblast	-0.75
Cn1cnc(Cn2ccc3ccc(CNCc4[nH]c5ccccc5c4[C@@H]4NC(=O)c5ccc(O)cc54)cc32)c1	Fibroblast	-0.87
C=CC(=O)Nc1ccc(C(=O)Nc2n[nH]c3c2CN(C(=O)N[C@H](CN(C)C)c2ccccc2)C3(C)C)cc1	Fibroblast	0.71
COCCNc1nc2ccc(C#CC3(O)CCCCC3)cc2n1-c1ccnc(N)n1	Fibroblast	-1
O=C(Nc1ccc(OC(F)(F)Cl)cc1)c1cnc(N2CC[C@@H](O)C2)c(-c2ccn[nH]2)c1 [ASCIMINIB]	Fibroblast	-0.75
CC(=O)Nc1nc2c(Oc3cc(-c4ccc(C(F)(F)F)cc4)ncn3)cccc2s1 [AMG-517]	Fibroblast	-0.6
CN[C@@H](C)C(=O)N[C@H](C(=O)N1CCC[C@H]1c1nc(C(=O)c2ccc(F)cc2)cs1)C1CCCCC1 [LCL-161]	Fibroblast	0.19
C[C@H](c1ccnc(Nc2nc3ccc(-c4cc(N(C)C)ncn4)cc3[nH]2)c1)N1CCN(C(=O)CC(F)(F)F)CC1 [BAY-985]	Fibroblast	-0.72
COc1cc(Nc2ccc([N+](=O)[O-])cc2C(=O)O)cc2ccccc12	Fibroblast	-0.6
c1ccc(C2CCN(c3cnc4c(N5CCOCC5)nccn34)CC2)cc1	Fibroblast	0.96
